TARGET_DESC: 5-lipoxygenase (Rattus norvegicus)
Construct: The 100,000 x g supernatant fraction of Rat Basophilic Leukemia Cell Homogenate (RBL-1); endogenous in cells
Sequence (P12527 1-673): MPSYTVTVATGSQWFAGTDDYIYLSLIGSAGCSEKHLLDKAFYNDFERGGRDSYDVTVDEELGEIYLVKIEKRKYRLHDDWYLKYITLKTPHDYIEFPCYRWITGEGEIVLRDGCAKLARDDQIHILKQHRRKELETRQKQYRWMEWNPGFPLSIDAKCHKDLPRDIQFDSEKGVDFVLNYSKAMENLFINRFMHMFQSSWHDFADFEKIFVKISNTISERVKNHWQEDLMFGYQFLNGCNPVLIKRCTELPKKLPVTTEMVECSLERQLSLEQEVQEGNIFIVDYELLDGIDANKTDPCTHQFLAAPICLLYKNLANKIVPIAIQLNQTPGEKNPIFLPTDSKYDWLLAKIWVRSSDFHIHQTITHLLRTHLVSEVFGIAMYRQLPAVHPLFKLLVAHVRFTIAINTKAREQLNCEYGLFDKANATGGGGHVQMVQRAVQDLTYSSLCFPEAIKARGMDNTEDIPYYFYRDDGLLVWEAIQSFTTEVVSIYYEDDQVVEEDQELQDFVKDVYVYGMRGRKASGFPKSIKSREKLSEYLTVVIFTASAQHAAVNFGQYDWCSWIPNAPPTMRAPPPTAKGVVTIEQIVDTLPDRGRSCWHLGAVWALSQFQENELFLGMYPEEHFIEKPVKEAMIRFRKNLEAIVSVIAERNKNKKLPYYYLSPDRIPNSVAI
ASSAY_EXPLANATION: Inhibition of 5-lipoxygenase, in vitro (5-HETE synthesis, RBL-1 100,000 x g supernatant)
Protocol: The compounds of the invention are evaluated with respect to 5-lipoxygenaseinhibition according to the following assay procedure. Inhibition of 5-lipoxygenase, in vitro: anti-inflammatory, anti-allergy activities. The 100,000 x g supernatant fraction of Rat Basophilic Leukemia Cell Homogenate (RBL-1) serves as a 5-lipoxygenase enzyme source. […] The product of 5-lipoxygenase, 5-hydroxyeicosatetraenoic acid (5-HETE), is separated by thin-layer chromatography an measured by radioactivity. […]
RECORDED_METRIC: IC50 (µM)

1. CC(C)(C)c1cc(S[C@@H]2CCCC[C@H]2SCC(=O)O)cc(C(C)(C)C)c1 (relative stereo) = 100
2. CN(CCc1ccccn1)C(=O)CS[C@@H]1CCCC[C@H]1Sc1cc(C(C)(C)C)cc(C(C)(C)C)c1 (relative stereo) = 100

====

The entries below are paired with their reported log10 of IC50.
Tested on: human neutrophils
ASSAY_EXPLANATION: Human neutrophil superoxide generation (FMLP-stimulated, cytochrome C reduction)
Assay type: cell-based
MEASUREMENT_SETUP: Homo sapiens, Neutrophil; read-out: FMLP Induced Superoxide Generation, Inhibition IC50
RECORDED_METRIC: log10 of IC50 (log10 of the value in µM)

1. CC(C)(C)c1cc(S[C@@H]2CCCC[C@H]2SCC(=O)O)cc(C(C)(C)C)c1 (relative stereo) = 0.04
2. O=C(O)CS[C@@H]1CCCC[C@H]1Sc1ccccc1 (relative stereo) = 1.70
3. CC(C)(C)c1cccc(S[C@@H]2CCCC[C@H]2SCC(=O)O)c1 (relative stereo) = 0.68
4. C[C@H](Sc1cc(C(C)(C)C)c(O)c(C(C)(C)C)c1)[C@@H](C)OCC(=O)O (relative stereo) [Formula XX, reference compound] = 1.04
5. O=C(O)CS[C@@H]1CCCC[C@H]1Sc1cccc(-c2ccccc2)c1 (relative stereo) = 0.45
6. CC(C)(C)c1cc(S[C@@H]2CCCC[C@H]2OCC(=O)O)cc(C(C)(C)C)c1 (relative stereo) = 0.53

====

Sequence of the target: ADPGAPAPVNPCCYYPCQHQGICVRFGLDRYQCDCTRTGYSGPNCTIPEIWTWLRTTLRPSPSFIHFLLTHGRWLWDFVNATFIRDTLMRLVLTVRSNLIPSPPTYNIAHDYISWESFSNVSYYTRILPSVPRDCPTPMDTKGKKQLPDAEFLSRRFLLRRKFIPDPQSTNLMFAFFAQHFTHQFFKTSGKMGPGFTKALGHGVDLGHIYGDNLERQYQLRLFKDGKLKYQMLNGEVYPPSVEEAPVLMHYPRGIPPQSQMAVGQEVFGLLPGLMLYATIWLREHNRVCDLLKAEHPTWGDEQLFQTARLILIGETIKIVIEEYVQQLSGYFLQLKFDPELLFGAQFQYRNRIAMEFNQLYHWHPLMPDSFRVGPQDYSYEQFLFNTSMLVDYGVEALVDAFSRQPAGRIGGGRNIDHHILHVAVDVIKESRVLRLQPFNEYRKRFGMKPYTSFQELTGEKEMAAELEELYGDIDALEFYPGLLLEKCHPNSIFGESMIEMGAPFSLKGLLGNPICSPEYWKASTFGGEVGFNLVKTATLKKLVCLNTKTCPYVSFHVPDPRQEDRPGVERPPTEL
RECORDED_METRIC: IC50 (µM)

1) CC(C)(C)c1cccc(S[C@@H]2CCCC[C@H]2SCC(=O)O)c1 (relative stereo) [Example 11] = 2.9
2) O=C(O)CS[C@@H]1CCCC[C@H]1Sc1cccc(-c2ccccc2)c1 (relative stereo) [Example 15] = 64

The measurements presented in this section are drawn from patent US5272178A.
